# assay-comment: Plasma concentration in Beagle dog at 1 mg/kg, iv after 0.08 hrs
# Type: ADME, organism-based, Canis lupus familiaris
# Set-up: dose 1 mg/kg, route intravenous
property-measured: concentration at 0.08 h (µg/mL)

{"columns": ["item-smiles", "value-measured"],
 "data": [
  ["Cc1c(N2[C@@H]3CC[C@H]2C[C@@](C)(O)C3)ccc(C#N)c1Cl", 0.357]
]}

---

# assay-comment: Plasma concentration in Beagle dog at 1 mg/kg, iv after 4 hrs
# Format: ADME, organism-based, Canis lupus familiaris
# Design: dose 1 mg/kg, route intravenous

{"columns": ["item-smiles", "display-unit", "concentration at 4 h"],
 "data": [
  ["Cc1c(N2[C@@H]3CC[C@H]2C[C@@](C)(O)C3)ccc(C#N)c1Cl", "ng/mL", 18.5]
]}

Measured values drawn from ChEMBL document CHEMBL1156129 for this set.
